- SYSTEM UNDER TEST: UniProt P50406
- Sequence (P50406 whole entry): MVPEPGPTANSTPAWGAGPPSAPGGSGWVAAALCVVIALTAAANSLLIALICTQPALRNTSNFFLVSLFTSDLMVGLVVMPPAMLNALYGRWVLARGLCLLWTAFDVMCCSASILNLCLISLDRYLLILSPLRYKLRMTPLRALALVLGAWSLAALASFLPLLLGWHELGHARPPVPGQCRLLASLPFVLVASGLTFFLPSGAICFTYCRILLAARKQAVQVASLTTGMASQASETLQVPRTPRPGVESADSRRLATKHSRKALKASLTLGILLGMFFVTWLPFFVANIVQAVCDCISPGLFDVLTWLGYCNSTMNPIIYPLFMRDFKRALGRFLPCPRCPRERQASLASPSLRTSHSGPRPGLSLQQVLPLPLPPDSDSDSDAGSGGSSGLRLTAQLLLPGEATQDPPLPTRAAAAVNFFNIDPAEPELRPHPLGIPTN
PROPERTY NAME: Ki

The measured Ki that O=C1C(=Nc2cccc(C(F)(F)F)c2)c2ccccc2N1c1ccccc1 [Example 92] showed for UniProt P50406 is > 50 µM

====

- SYSTEM UNDER TEST: human GAL3 receptor (Homo sapiens, UniProt O60755)
- Construct: expressed in transfected cells
- TEST SUMMARY: Radioligand binding at cloned human GAL3 receptor
- CONDITION INFO: cloned human GAL3 receptor; pyrimidines, Tables 1-3; read-out: Ki (nM) GalR3
PROPERTY NAME: Ki (nM)
Field: numeric (nM). Do not append units.

Ki reading for N^2-[2-(1H-INDOL-3-YL)ETHYL]-N^2,N^4,N^4-TRIMETHYL-(2-NAPHTHYL)-6-(1-PIPERIDINYL)-2,4,6-PYRIMIDINETRIAMINE [Example 79] : 190

====

- SYSTEM UNDER TEST: human GAL3 receptor (Homo sapiens, UniProt O60755)
- Construct: expressed in transfected cells
- Sequence (O60755 1-368): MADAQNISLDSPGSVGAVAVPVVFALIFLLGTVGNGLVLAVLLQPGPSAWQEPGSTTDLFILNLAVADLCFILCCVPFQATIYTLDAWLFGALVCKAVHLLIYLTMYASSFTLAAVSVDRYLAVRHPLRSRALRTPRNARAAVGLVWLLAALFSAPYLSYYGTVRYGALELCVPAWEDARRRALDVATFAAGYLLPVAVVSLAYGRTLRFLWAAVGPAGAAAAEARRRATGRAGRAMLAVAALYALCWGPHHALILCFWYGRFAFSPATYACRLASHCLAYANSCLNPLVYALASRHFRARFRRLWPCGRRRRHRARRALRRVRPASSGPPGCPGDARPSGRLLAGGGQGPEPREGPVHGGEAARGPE
- TEST SUMMARY: Radioligand binding at cloned human GAL3 receptor
- CONDITION INFO: cloned human GAL3 receptor; pyrimidines, Table 3a; read-out: Ki (nM) Gal3
PROPERTY NAME: Ki (nM)
Field: numeric (nM). Do not append units.

Ki reading for CN(C)c1cc(N[C@@H]2C[C@H]3CC[C@]2(C)C3(C)C)nc(N2CCN(Cc3ccccc3)CC2)n1 : 55

Ki reading for CN(C)c1cc(NC23CC4CC(CC2C4)C3)nc(N2CCN(Cc3ccccc3)CC2)n1 : 124

Ki reading for CN(C)c1cc(Nc2ccc(Cl)cc2C(F)(F)F)nc(N2CCN(Cc3ccccc3)CC2)n1 : 59

Ki reading for CN(C)c1cc(Nc2ccccc2Cl)nc(N2CCN(c3ccccn3)CC2)n1 : 388

====

- SYSTEM UNDER TEST: human GAL3 receptor (Homo sapiens)
- Construct: expressed in transfected cells
- TEST SUMMARY: Radioligand binding at cloned human GAL3 receptor
- CONDITION INFO: cloned human GAL3 receptor; pyrimidines, Tables 1-3; read-out: Ki (nM) GalR3
PROPERTY NAME: Ki (nM)
Field: numeric (nM). Do not append units.

Ki reading for CN(CCc1c[nH]c2ccccc12)c1nc(NCCc2ccccc2)cc(N2CCCCC2)n1 : 322

Ki reading for C[C@H]1CC2CC([C@@H]1Nc1cc(N(C)C)nc(Nc3ccccc3)n1)C2(C)C (some centres unmarked) : 72
